Target chain: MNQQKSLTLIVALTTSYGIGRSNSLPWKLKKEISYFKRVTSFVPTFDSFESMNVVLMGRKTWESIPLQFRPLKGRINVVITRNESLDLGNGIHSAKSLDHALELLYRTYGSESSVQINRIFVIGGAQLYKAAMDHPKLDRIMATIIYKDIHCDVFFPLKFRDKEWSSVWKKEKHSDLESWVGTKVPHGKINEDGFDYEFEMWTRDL
Below, each entry is listed with its recorded IC50.
Numbers only; they are read as nM.

// below: answered molecules
// recorded IC50 for COc1cc(Cc2cnc(N)nc2N)cc(C#CCCC(=O)O)c1Br : 71

So for Nc1nc(N)c2nc(CN3c4ccccc4C=Cc4c(C#CCCC(=O)O)cccc43)cnc2n1 , the logged IC50 turned out to be 230

The molecule listed as Nc1nc(N)c2nc(CN3c4ccccc4C=Cc4c(C#CCCCC(=O)O)cccc43)cnc2n1 shows IC50 equal to 12

COc1ccc(OCCCC(=O)O)c(Cc2cnc3nc(N)nc(N)c3c2C)c1 yielded IC50 of 0.17

Input COc1ccc(OCc2ccccc2)c(Cc2cnc3nc(N)nc(N)c3c2C)c1 . Output IC50: 96

New cases:
Entry CCOC(=O)CCCCOc1ccc(OC)c(Cc2cnc3nc(N)nc(N)c3c2C)c1 — recorded IC50 = 28
